Target: Carbonic anhydrase 2 (Homo sapiens)
Assay: Inhibition of human recombinant carbonic anhydrase-2 preincubated for 6 hrs by stopped-flow CO2 hydration assay
measure-name: Ki

Examples with their reported Ki follow.
Cc1cc(=O)oc2cc(NC(=O)c3ccccc3NC(=O)c3ccc(Cl)cc3)ccc12: > 500 µM
CC1=Nc2ccccc2S(=O)(=O)N1: 0.642 µM
O=c1[nH]c(=O)c2cc([N+](=O)[O-])ccc2[nH]1: > 500 µM
O=c1[nH]cnc2ccccc12 [QUINAZOLINONE]: > 500 µM
O=C(Nc1ccccc1C(=O)Nc1ccc2c(C(F)(F)F)cc(=O)oc2c1)c1ccc(F)cc1: > 500 µM

Measured Ki for this entry Cc1cc(=O)oc2cc(NC(=O)c3ccccc3NC(=O)c3ccc(F)cc3)ccc12 on Carbonic anhydrase 2 (Homo sapiens): > 500 µM

Measured Ki for this entry Cc1cc(=O)oc2cc(NC(=O)c3ccccc3NC(=O)c3ccccc3)ccc12 on Carbonic anhydrase 2 (Homo sapiens): > 500 µM

Measured Ki for this entry O=C1Nc2ccccc2S(=O)(=O)N1 on Carbonic anhydrase 2 (Homo sapiens): 0.127 µM

Measured Ki for this entry O=C(Nc1ccccc1C(=O)Nc1ccc2c(C(F)(F)F)cc(=O)oc2c1)c1ccc(Cl)cc1 on Carbonic anhydrase 2 (Homo sapiens): > 500 µM

Measured Ki for this entry O=C(Nc1ccccc1C(=O)Nc1ccc2c(C(F)(F)F)cc(=O)oc2c1)c1ccccc1 on Carbonic anhydrase 2 (Homo sapiens): > 500 µM

Measured Ki for this entry O=S1(=O)NC=Nc2ccccc21 on Carbonic anhydrase 2 (Homo sapiens): 0.378 µM

* * *

Target: Carbonic anhydrase 9 (Homo sapiens)
Experiment: Inhibition of human recombinant carbonic anhydrase-9 preincubated for 6 hrs by stopped-flow CO2 hydration assay
measure-name: Ki (nM)
Give just the numeric value; nM need not be written.

Cc1cc(=O)oc2cc(NC(=O)c3ccccc3NC(=O)c3ccc(Cl)cc3)ccc12: 18.4
O=C(Nc1ccccc1C(=O)Nc1ccc2c(C(F)(F)F)cc(=O)oc2c1)c1ccccc1: 10.9
O=C(Nc1ccccc1C(=O)Nc1ccc2c(C(F)(F)F)cc(=O)oc2c1)c1ccc(F)cc1: 20

Briefly, Ki measured for O=S1(=O)NC=Nc2ccccc21 : 116

Briefly, Ki measured for O=c1[nH]c(=O)c2cc([N+](=O)[O-])ccc2[nH]1 : 5470

* * *

Molecular target: Carbonic anhydrase 1 (Homo sapiens, UniProt P00915)
Sequence (P00915 whole entry): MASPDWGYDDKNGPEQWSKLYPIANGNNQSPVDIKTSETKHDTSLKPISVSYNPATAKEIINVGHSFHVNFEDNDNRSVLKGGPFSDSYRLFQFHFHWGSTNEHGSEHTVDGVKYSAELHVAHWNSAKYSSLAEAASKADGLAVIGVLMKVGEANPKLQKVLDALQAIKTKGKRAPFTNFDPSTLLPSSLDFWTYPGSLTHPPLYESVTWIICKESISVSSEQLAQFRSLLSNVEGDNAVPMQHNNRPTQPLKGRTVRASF
Test: Inhibition of human recombinant carbonic anhydrase-1 preincubated for 6 hrs by stopped-flow CO2 hydration assay
pKi: −log10 of the molar value.
measure-name: pKi

Examples with their reported pKi follow.
O=C1Nc2ccccc2S(=O)(=O)N1: 6.11
O=C(Nc1ccccc1C(=O)Nc1ccc2c(C(F)(F)F)cc(=O)oc2c1)c1ccc(Cl)cc1: < 3.30
O=c1[nH]c(=O)c2cc([N+](=O)[O-])ccc2[nH]1: < 3.30
Cc1cc(=O)oc2cc(NC(=O)c3ccccc3NC(=O)c3ccccc3)ccc12: < 3.30

Briefly, pKi measured for Cc1cc(=O)oc2cc(NC(=O)c3ccccc3NC(=O)c3ccc(F)cc3)ccc12 : < 3.30

* * *

Biological target: Carbonic anhydrase 1 (Homo sapiens, UniProt P00915)
Assay: Inhibition of human recombinant carbonic anhydrase-1 preincubated for 6 hrs by stopped-flow CO2 hydration assay
measure-name: Ki

Examples with their reported Ki follow.
O=S1(=O)NC=Nc2ccccc21: 12.6 µM
O=C(Nc1ccccc1C(=O)Nc1ccc2c(C(F)(F)F)cc(=O)oc2c1)c1ccccc1: > 500 µM

Briefly, Ki measured for CC1=Nc2ccccc2S(=O)(=O)N1 : 13.8 µM

Briefly, Ki measured for Cc1cc(=O)oc2cc(NC(=O)c3ccccc3NC(=O)c3ccc(Cl)cc3)ccc12 : > 500 µM

Briefly, Ki measured for O=C(Nc1ccccc1C(=O)Nc1ccc2c(C(F)(F)F)cc(=O)oc2c1)c1ccc(F)cc1 : > 500 µM

* * *

Biological target: Carbonic anhydrase 9 (Homo sapiens, UniProt Q16790)
Experiment: Inhibition of human recombinant carbonic anhydrase-9 preincubated for 6 hrs by stopped-flow CO2 hydration assay
measure-name: pKi
// scale note: pKi = -log10(conc_M); give the bare number

Cc1cc(=O)oc2cc(NC(=O)c3ccccc3NC(=O)c3ccc(F)cc3)ccc12: 7.82
O=C1Nc2ccccc2S(=O)(=O)N1: 7.06
Cc1cc(=O)oc2cc(NC(=O)c3ccccc3NC(=O)c3ccccc3)ccc12: 7.67
O=C(Nc1ccccc1C(=O)Nc1ccc2c(C(F)(F)F)cc(=O)oc2c1)c1ccc(Cl)cc1: 7.61

Briefly, pKi measured for O=c1[nH]cnc2ccccc12 : 4.80

Briefly, pKi measured for CC1=Nc2ccccc2S(=O)(=O)N1 : 6.46
